Data origin: patent US20250320312A1

Exercise: state measured OD450 for each of the binders provided.
- tgt: Peptide 5: Biotin-…-[Tyr(PC)]-acid
- Sequence (peptide, as listed by the source): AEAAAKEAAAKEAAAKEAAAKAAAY
- experimentDescription: scFv ELISA
Write the value in OD450 as a bare number.

Supply OD450 value. Item: PcOxP_DB04_A07 (scFv, V domains shown, scFv in periplasmic extract) VH: EVQLLESGGGLVQPGGSLRLSCAASGFTQSDFYMEWVRQAPGKGLEWVAASRNKANDYTTEYADSVKGRFTISRDNSKNTLYLQMNSLRAEDTAVYYCARDYYGSSYWYFDVWGQGTLVTVSS VL: DIQMTQSPSSLSASVGDRVTITCTASESLYSSKHKVHYLAWYQQKPGKAPKLLIYGISNRYIGVPSRFSGSGSGTDFTLTISSLQPEDFATYYCAQFYSYPLTFGGGTKVEIK
2.11

Give recorded OD450. PcOxP_DB03_G02 (scFv, V domains shown, scFv in periplasmic extract) VH: EVQLLESGGGLVQPGGSLRLSCAASGFTFSDGYIEWVRQAPGKGLEWVAASRNKANDYTTEYADSVKGRFTISRDNSKNTLYLQMNSLRAEDTAVYYCARDYYGSSYWYFDVWGQGTLVTVSS VL: DIQMTQSPSSLSASVGDRVTITCTASEELYSSKHKVHYLAWYQQKPGKAPKLLIYGASNRYIGVPSRFSGSGSGTDFTLTISSLQPEDFATYYCAQFYSYPLTFGGGTKVEIK
1.59

Retrieve OD450 measured for PcOxP_DB01_C08 (scFv, V domains shown, scFv in periplasmic extract) VH: EVQLLESGGGLVQPGGSLRLSCAASGFTFSDGYMEWVRQAPGKGLEWVAASRNKANDYTTEYADSVKGRFTISRDNSKNTLYLQMNSLRAEDTAVYYCARDYYASSYWYFDVWGQGTLVTVSS VL: DIQMTQSPSSLSASVGDRVTITCRASESISSSKNKVHYLAWYQQKPGKAPKLLIYGASNRYYGVPSRFSGSGSGTDFTLTISSLQPEDFATYYCAQFYSYPLTFGGGTKVEIK and print it.
0.79

Using the record for PcOxP_DB03_E03 (scFv, V domains shown, scFv in periplasmic extract) VH: EVQLLESGGGLVQPGGSLRLSCAASGFTESDFYMEWVRQAPGKGLEWVAASRNKANDYTTEYADSVKGRFTISRDNSKNTLYLQMNSLRAEDTAVYYCARDYYGSSYWYFDVWGQGTLVTVSS VL: DIVMTQSPDSLAVSLGERATINCKSSQSLLYSKNNVNYLAWYQQKPGQPPKLLIYGESNRYIGVPDRFSGSGSGTDFTLTISSLQAEDVAVYYCAQFYEYPLTFGGGTKVEIK , state its measured OD450.
0.79

Please report the measured OD450 for PcOxP_DB01_H06 (scFv, V domains shown, scFv in periplasmic extract) VH: EVQLLESGGGLVQPGGSLRLSCAASGFTFSDFYMEWVRQAPGKGLEWVAASRNKGNSYTTAYADSVKGRFTISRDNSKNTLYLQMNSLRAEDTAVYYCARDYYGSSYWYFDVWGQGTLVTVSS VL: DIVMTQSPDSLAVSLGERATINCTASESLYSSKHKVHYLAWYQQKPGQPPKLLIYGASNRYDGVPDRFSGSGSGTDFTLTISSLQAEDVAVYYCANFYSYPLTFGGGTKVEIK
1.79
